system: Lung; experiment: Biodistribution in ICR mouse lung at 5 to 10 uCi, iv after 30 mins; assay type: ADME, organism-based; settings: in vivo, 0.5 h
Quick reference for Drug uptake among some compounds

Study these solved cases before continuing.
CNc1ccc(C#Cc2ccc(OCCOCC[18F])cc2)cc1 | 4.77 % ID/g
CN(C)c1ccc(C#Cc2ccc(OCCOCC[18F])cc2)cc1 | 4.66 % ID/g
CNc1ccc(C#Cc2ccc(OCCOCCOCC[18F])cc2)cc1 | 2.1 % ID/g

Turning to the following compound.
The recorded Drug uptake for entry CN(C)c1ccc(C#Cc2ccc(OCCOCCOCC[18F])cc2)cc1 equals 2.26 % ID/g
